Tested on: M14 melanoma
assay.method.text: NCI tumour cell line growth inhibition, 48 h
Provide the recorded TGI for the entries that follow.

Illustrative cases are given below, each with its answer.
{"columns": ["compound", "reported.measurement"],
 "data": [
  ["CCCCCC[C@H]1C(=O)O[C@H](C)[C@H](NC(=O)c2cccc(NC=O)c2OC)C(=O)O[C@@H](C)[C@@H]1OC(=O)CC(C)C (tested in a mixture with another compound)", "> 100 µM"],
  ["Oc1ccc(/C=C/c2ccc3cccc(O)c3n2)cc1O", "7.46 µM"],
  ["Cc1n[nH]c(=O)n1/N=C\\CC/C=N\\n1c(C)n[nH]c1=O", "> 100 µM"],
  ["CCN(CC)c1ccc(C(=N)c2ccc(N(C)C)cc2)cc1", "2.06 µM"],
  ["c1ccc(C2OCCO2)c(OCCOc2cc(OCCOc3ccccc3C3OCCO3)c(OCCOc3ccccc3C3OCCO3)cc2OCCOc2ccccc2C2OCCO2)c1", "> 100 µM"],
  ["C=C1CCC2[C@@H](CCC3[C@]2(C)CCC[C@]3(C)C(=O)OC)C1CCO (stereo partly drawn)", "26.5 µM"]
]}

Please state TGI for every compound in the list that follows.
1. O=c1cc(N=Nc2ccc(O)cc2)[nH]c(=O)[nH]1
2. COC(=O)C(F)C(Br)C(=O)OC (stereo not drawn)

1. > 100 µM
2. 13.4 µM

Quick batch: TGI for everything below.
1. O=c1[nH]c(-c2ccccc2)nc2c1sc1nc3ccccc3n12
2. Cc1cc2nc(-c3c(F)cccc3F)n(Cc3c(F)cccc3F)c2cc1C
3. CCC1CCc2c(OC)ccc(OCC(=O)O)c2C1=O (stereo not drawn)
4. Nc1ccc(-c2ccc(N)cc2I)c(I)c1
5. CCOc1ncn(-c2ccc(NC(=S)NC34CC5CC(CC(C5)C3)C4)cc2)n1
6. O=C1CCC2(c3ccccc3)Nc3ncccc3N12 (stereo not drawn)
7. CC(C)C/C=C/C1=NN(c2cccc(S(=O)(=O)O)c2)C2(C1)SCC(=O)N2c1nc2ccccc2s1 (stereo not drawn)
8. COc1ccc(/C=C2\CCC(CN(C)C)C2=O)cc1OC (stereo not drawn)

["> 100 µM", "25.2 µM", "> 100 µM", "34.4 µM", "> 100 µM", "> 100 µM", "> 100 µM", "16.1 µM"]

Below is a list of compounds. For each, state its recorded TGI.
1. COc1ccc(-c2nn(-c3cccc(Cl)c3)cc2-c2cc(-c3ccccc3)nc(N)n2)cc1
2. Cc1ccc(Nc2nc(NS(=O)(=O)c3cc(C(=O)Nc4ccc(Cl)cc4)c(Cl)cc3S)n[nH]2)cc1
3. c1ccc(C2OCC(OC3CCCCO3)CO2)cc1 (stereo not drawn)

["13.2 µM", "> 100 µM", "> 100 µM"]

###

Please go through the items and note down their TGI.
System: EKVX NSCLC
assay.method.text: NCI tumour cell line growth inhibition, 48 h

Below are worked cases with known answers.
{"columns": ["compound", "TGI"],
 "data": [
  ["Cc1ccc(Nc2nc(NS(=O)(=O)c3cc(C(=O)Nc4ccc(Cl)cc4)c(Cl)cc3S)n[nH]2)cc1", "> 100 µM"],
  ["Nc1n[nH]c2cccc(C#Cc3cccc(C(=O)Nc4cc(CN5CCOCC5)cc(C(F)(F)F)c4)c3)c12", "19.9 µM"],
  ["Cc1ccc(S(=O)(=O)Nn2c(S)c(C#N)c(-c3ccc([N+](=O)[O-])cc3)c(C#N)c2=O)cc1", "> 100 µM"],
  ["O=C(CN1CCN(c2ccccc2)CC1)N1CCN(c2nnc(-c3ccc(Cl)cc3)c(-c3ccc(Cl)cc3)n2)CC1", "> 100 µM"],
  ["CC1OC1C(=O)C1(O)C(C)C(O)C23OC2(C(O)c2c(O)cccc2C3=O)C1O (stereo not drawn)", "0.541 µM"],
  ["COC(C)(C)CCc1[nH]c2ccccc2c1CC(=O)NCCc1cncn1C", "> 100 µM"]
]}

Record TGI per entry; entries follow.
1. CC#CC1C(OC(=O)c2ccccc2)CCCC1(CI)N=[N+]=[N-] (stereo not drawn)
2. C/C(=N\NC(=S)Nc1ccc(C)cc1)c1nc2ncccc2[nH]1
3. CC1(C)CC[C@]2(C(=O)N3CCOCC3)CC[C@]3(C)C(=CC[C@@H]4[C@@]5(C)C/C(=C/c6ccncc6)C(=O)C(C)(C)[C@@H]5CC[C@]43C)[C@@H]2C1
4. CC(C)CC(NC(=O)C(CCI)Cc1ccccc1)C(=O)Nc1ccccc1 (stereo not drawn)
5. Nc1n[nH]c2ccc([C@@H]3Nc4ccc5[nH]ncc5c4[C@H]4C5C=CC(C5)[C@@H]34)cc12 (stereo partly drawn)
6. N#Cc1cc([N+](=O)[O-])ccc1NC(=O)/C(=N/N)C(C(=O)c1ccc(Cl)c(Cl)c1)C1OC(=O)c2ccccc21 (stereo not drawn)
7. c1ccc(P(CCP(CCP(c2ccccc2)c2ccccc2)c2ccccc2)CCP(c2ccccc2)c2ccccc2)cc1 (stereo not drawn)

1: > 100 µM; 2: 7.27 µM; 3: > 100 µM; 4: > 100 µM; 5: 43.2 µM; 6: > 100 µM; 7: > 10 µM

###

Please go through the items and note down their TGI.
Tested on: NCI/ADR-RES ovarian
assay.method.text: NCI tumour cell line growth inhibition, 48 h

Please review the entries below; each comes with its answer.
{"columns": ["compound", "measured.attribute", "reported.measurement"],
 "data": [
  ["Clc1nc(NCCc2ccccc2)c2ncn(-c3ccccc3)c2n1", "TGI", "57.9 µM"],
  ["CSc1ccccc1C#Cc1ccccc1C#CCCCCO", "TGI", "31.1 µM"],
  ["COc1cc(Oc2nc3c(N)cc(C(F)(F)F)cc3nc2-c2ccccc2)cc(OC)c1OC", "TGI", "> 26.1 µM"],
  ["Cc1ccc(S(=O)(=O)n2c3c(c4ccccc42)CCN2CCC(Br)C[C@@H]32)cc1 (stereo not given in full)", "TGI", "32.5 µM"],
  ["COc1cc(C2CC(c3ccc(N(C)C)cc3)=NN2C(C)=O)cc(OC)c1OC (stereo not given)", "TGI", "> 100 µM"]
]}

// each compound listed below needs its TGI
1. Nc1nc(N)c2[nH]cnc2n1 (tested in a mixture with another compound)
2. Cc1ccc(S(=O)(=O)NNC2(NS(=O)(=O)c3ccc(Cl)cc3)C(Cl)=C(Cl)C(=O)c3ccccc32)cc1 (stereo not given)
3. CCSc1nc(=[N+]2CCCC2)ss1

1. > 100 µM
2. 89.8 µM
3. > 100 µM

# return TGI for each item in the list
1. COc1ccc(-c2nn(-c3cccc(Cl)c3)cc2-c2cc(-c3ccccc3)nc(N)n2)cc1
2. O=C(/C=C/c1ccccc1)CSc1nc2ccc(I)cc2c(=O)n1Cc1ccccc1

1: 31 µM; 2: > 100 µM

###

Tested on: MOLT-4 leukemia
assay.method.text: NCI tumour cell line growth inhibition, 48 h
measured.attribute: GI50

{"columns": ["compound", "GI50"],
 "data": [
  ["CCCCCCCOc1c(OC)cc(C2CC(=O)Nc3c2c(C)nn3-c2nc3ccccc3[nH]2)cc1OC (centres undefined)", "2.8 µM"],
  ["C/C=C/[C@@H]1OC(=O)C2=C[C@@H](O)[C@@H](/C=C/C)O[C@H]21", "1.73 µM"],
  ["Nc1ccc(-c2ccc(N)cc2I)c(I)c1", "9.89 µM"],
  ["CS(=O)(=O)Nc1ccc(N=Cc2c(O)[nH]c3ccccc23)cc1", "> 25 µM"]
]}

Each compound below has a recorded value; state its GI50.
1. CC1(C)CC[C@]2(C(=O)N3CCOCC3)CC[C@]3(C)C(=CC[C@@H]4[C@@]5(C)C/C(=C/c6ccncc6)C(=O)C(C)(C)[C@@H]5CC[C@]43C)[C@@H]2C1
2. O=C(CCCSc1nc(-c2ccccc2)cc(-c2ccc(Cl)cc2)n1)NO
3. N.N.NCCCCCCN.O=C([O-])CC(=O)[O-].O=C([O-])CC(=O)[O-].[Pt+4].[Pt+4]

0.787 µM
1.51 µM
5.2 µM

Provide the reported GI50 of each entry below, same order.
1. O=C(CN(/C=C/C(=O)C(F)(F)F)c1ccccc1)c1ccc(Cl)c(Cl)c1
2. COc1cc(C2CC(c3ccc(N(C)C)cc3)=NN2C(C)=O)cc(OC)c1OC (centres undefined)

["12.7 µM", "12.8 µM"]

###

System: OVCAR-3 ovarian
assay.method.text: NCI tumour cell line growth inhibition, 48 h; in the data active means GI50 below about 0.43 µM; inactive means the rest
Return exactly one item of y = active, n = inactive

These recorded examples may help you get a feel for the data.
{"columns": ["molecule", "discrete.label"],
 "data": [
  ["N.N.NCCCCCCN.O=C([O-])CC(=O)[O-].O=C([O-])CC(=O)[O-].[Pt+4].[Pt+4]", "n"],
  ["O=C(COc1cccc(/C=C2\\COc3ccc(Cl)cc3C2=O)c1)c1ccc(Cl)cc1", "n"],
  ["CCOc1cc2c(cc1O)/C(=N/NS(=O)(=O)c1ccc(C)cc1)C[C@@H]1[C@@H]2CC[C@]2(C)[C@@H](O)CC[C@@H]12", "n"],
  ["Nc1ccc(-c2ccc(N)cc2I)c(I)c1", "n"],
  ["FC(F)(F)c1ccc(-c2cnc(Cl)nc2NCc2cc(C(F)(F)F)cc(C(F)(F)F)c2)cc1", "n"]
]}

Now turn to the next molecule.
Would you mind telling me which call this test gave CCN(CC)c1ccc(C(=N)c2ccc(N(C)C)cc2)cc1 ?
y
